Documented IC50 across a set of compounds
Target: SLO (soybean 15-lipoxygenase: L1; EC 1,13,11,12) (Glycine max)
Assay: 15-lipoxygenase inhibitory assessment (peroxide formation method)
Type: biochemical
Details: SLO; read-out: IC50 inhibitory activity against soybean 15-lipoxygenase (abstract)

[
  {
    "compound": "CC1(C)C2CCC1(C)[C@H](OC(=O)c1ccc(O)c(O)c1)C2 (some centres unmarked) [2o]",
    "target-entity": "SLO (soybean 15-lipoxygenase: L1; EC 1,13,11,12) (Glycine max)",
    "IC50": "0.78 µM"
  },
  {
    "compound": "O=C(OC12CC3CC(CC(C3)C1)C2)c1ccc(O)c(O)c1 [2j]",
    "target-entity": "SLO (soybean 15-lipoxygenase: L1; EC 1,13,11,12) (Glycine max)",
    "IC50": "0.95 µM"
  }
]
